Values were extracted from patent US20250368648A1.

Target: IRAK4 (Homo sapiens)
Sequence (Q9NWZ3 1-460): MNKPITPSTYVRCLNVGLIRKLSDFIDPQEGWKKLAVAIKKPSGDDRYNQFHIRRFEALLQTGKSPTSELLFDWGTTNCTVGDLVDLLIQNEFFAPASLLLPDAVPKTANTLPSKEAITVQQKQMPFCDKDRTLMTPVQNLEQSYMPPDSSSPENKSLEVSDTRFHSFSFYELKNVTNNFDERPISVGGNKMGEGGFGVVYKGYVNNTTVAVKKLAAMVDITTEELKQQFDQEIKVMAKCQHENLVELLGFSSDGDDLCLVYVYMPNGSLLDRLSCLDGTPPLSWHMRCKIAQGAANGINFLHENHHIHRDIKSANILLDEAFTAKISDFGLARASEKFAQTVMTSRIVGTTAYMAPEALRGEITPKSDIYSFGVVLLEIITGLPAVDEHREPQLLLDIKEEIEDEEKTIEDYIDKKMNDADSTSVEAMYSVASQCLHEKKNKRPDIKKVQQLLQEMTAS
Assay: Reaction Biology NanoBRET target engagement assay, IRAK4
Assay type: cell-based
Conditions: HEK-293 cells transfected with Kinase-NanoLuc fusion vector, live cells
Parameter: IC50. Scope: all listed entries.
test.readout: IC50

• COc1cc2ncc(-c3nc(N[C@H]4CNCC[C@@H]4F)c(F)cc3F)n2nc1C1CCC1 [Compound 15a] = 1 nM
• COc1cc2ncc(-c3nc(N[C@@H]4CCCNC4)c(F)cc3F)n2nc1C(C)(O)C(F)(F)F (single isomer, unassigned) [Compound 81a] = 0.6 nM
• COc1cc2ncc(-c3nc(N[C@H]4CNCC[C@@H]4F)c(F)cc3F)n2nc1C12CC(C1)C2 [Compound 67a] = 5 nM
• COc1cc2ncc(-c3nc(N[C@H]4CNC[C@@H]4F)c(F)cc3F)n2nc1C(C)(O)C(F)(F)F (single isomer, unassigned) [Compound 80a] = 5 nM
• COc1cc2ncc(-c3nc(N[C@H]4CNCC[C@@H]4F)c(F)cc3F)n2nc1C(C)(O)C(F)(F)F (single isomer, unassigned) [Compound 77a] = 0.4 nM
• COc1cc2ncc(-c3nc(N[C@H]4CNCC[C@@H]4F)c(F)cc3F)n2nc1C1CC2(CCC2)C1 [Compound 10a] = 64 nM
• COc1cc2ncc(-c3nc(N[C@H]4CNC[C@@H]4F)c(F)cc3F)n2nc1C1CC2(CCC2)C1 [Compound 12a] = 71 nM

----------
Target: IRAK4 (Homo sapiens, UniProt Q9NWZ3)
Test: RBC HotSpot Kinase Assay, IRAK4
Type: biochemical
Design: purchased RBC (Reaction Biology) HotSpot assay
Details: HotSpot functional assay, isolated kinase enzyme, 33P-ATP
Text: This assay uses the isolated kinase enzyme. This assay is very useful for determining competition of the inhibitor for ATP and/or substrates and for measuring the kinetics of enzyme inhibition. […] Unlike kinase binding assays that measure competition for ATP, the HotSpot Kinase Assay is a functional assay that measures catalytic activity; as such it measures relative functional potency regardless of the mechanism of enzyme inhibition. […]
pIC50: −log10 of the molar value.
Classify as follows. Reported pIC50 greater than or equal to 7: true. Reported pIC50 below: false.

- COc1ccc(-c2cnc3cc(OC)c(C4CC4)nn23)nc1N[C@H]1CNCC[C@@H]1F [Compound 35a]: true
- COc1cc2ncc(-c3nc(N[C@H]4CNCC[C@@H]4F)c(F)cc3F)n2nc1N1CCCS1(=O)=O [Compound 70a]: true
- Fc1cc(F)c(-c2cnc3cc(OCC(F)F)cnn23)nc1N[C@@H]1CCCNC1 [Compound 83a]: true
- COc1cc2ncc(-c3cc(-c4ccccc4)cc(N[C@H]4CNC[C@@H]4F)n3)n2nc1C1CC1 [Compound 54a]: false
- COc1cc2ncc(-c3nc(N[C@H]4CNC[C@@H]4F)c(C)cc3C)n2nc1C1CC1 [Compound 63a]: false
- COc1cc2ncc(-c3cc(Oc4ccccc4)cc(N[C@H]4CNC[C@@H]4F)n3)n2nc1C1CC1 [Compound 60a]: false
- COc1cc2ncc(-c3nc(N[C@@H]4CCCNC4)c(F)cc3F)n2nc1C1CCCC1 [Compound 17a]: true

----------
Molecular target: IRAK1 (Homo sapiens, UniProt P51617)
Construct: purchased RBC (Reaction Biology) HotSpot assay
Sequence (P51617 whole entry): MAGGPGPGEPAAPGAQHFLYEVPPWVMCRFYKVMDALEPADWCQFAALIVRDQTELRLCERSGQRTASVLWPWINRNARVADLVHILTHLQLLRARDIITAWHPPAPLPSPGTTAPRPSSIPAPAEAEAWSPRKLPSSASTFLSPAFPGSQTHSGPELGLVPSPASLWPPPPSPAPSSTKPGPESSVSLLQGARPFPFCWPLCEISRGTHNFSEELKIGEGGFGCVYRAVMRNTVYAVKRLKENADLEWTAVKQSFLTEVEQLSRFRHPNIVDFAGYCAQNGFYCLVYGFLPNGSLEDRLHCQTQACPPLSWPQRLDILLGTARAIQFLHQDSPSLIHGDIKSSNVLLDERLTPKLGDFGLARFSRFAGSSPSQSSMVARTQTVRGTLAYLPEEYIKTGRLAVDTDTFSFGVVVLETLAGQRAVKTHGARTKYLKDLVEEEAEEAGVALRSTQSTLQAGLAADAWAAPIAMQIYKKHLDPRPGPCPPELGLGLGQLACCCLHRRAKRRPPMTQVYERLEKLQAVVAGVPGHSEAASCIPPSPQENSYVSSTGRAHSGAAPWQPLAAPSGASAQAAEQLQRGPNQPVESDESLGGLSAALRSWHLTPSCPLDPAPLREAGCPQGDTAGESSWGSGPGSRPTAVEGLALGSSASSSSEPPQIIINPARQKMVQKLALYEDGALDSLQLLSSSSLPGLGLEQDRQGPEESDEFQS
Assay: RBC HotSpot Kinase Assay, IRAK1
Format: biochemical
Details: HotSpot functional assay, isolated kinase enzyme, 33P-ATP
pIC50: −log10 of the molar value.
Classify as follows. Reported pIC50 greater than or equal to 6: T. Reported pIC50 below: F.

• COc1cc2ncc(-c3nc(N[C@H]4CNC[C@@H]4F)ccc3C)n2nc1C1CC1 [Compound 43a] = F
• COc1cc2ncc(-c3cc(Oc4ccccc4)cc(N[C@@H]4CCCNC4)n3)n2nc1C1CC1 [Compound 59a] = F
• Fc1cc(F)c(-c2cnc3cc(OCC(F)F)cnn23)nc1N[C@H]1CNC[C@@H]1F [Compound 82a] = T
• COc1ccc(-c2cnc3cc(OC)c(C4CC4)nn23)nc1N[C@@H]1CCCNC1 [Compound 34a] = F
• COc1cc2ncc(-c3ccc(F)c(N[C@H]4CNC[C@@H]4F)n3)n2nc1C(C)(C)O = F
• COc1cc2ncc(-c3nc(N[C@H]4CNC[C@@H]4F)c(F)cc3F)n2nc1C1CCC1 [Compound 13a] = T
• COc1cc2ncc(-c3nc(N[C@H]4CNCC[C@@H]4F)ccc3F)n2nc1C(C)(C)O = T

----------
Target: FLT3 K663Q (Homo sapiens, UniProt P36888, K663Q)
Sequence (P36888 27-993 K663Q): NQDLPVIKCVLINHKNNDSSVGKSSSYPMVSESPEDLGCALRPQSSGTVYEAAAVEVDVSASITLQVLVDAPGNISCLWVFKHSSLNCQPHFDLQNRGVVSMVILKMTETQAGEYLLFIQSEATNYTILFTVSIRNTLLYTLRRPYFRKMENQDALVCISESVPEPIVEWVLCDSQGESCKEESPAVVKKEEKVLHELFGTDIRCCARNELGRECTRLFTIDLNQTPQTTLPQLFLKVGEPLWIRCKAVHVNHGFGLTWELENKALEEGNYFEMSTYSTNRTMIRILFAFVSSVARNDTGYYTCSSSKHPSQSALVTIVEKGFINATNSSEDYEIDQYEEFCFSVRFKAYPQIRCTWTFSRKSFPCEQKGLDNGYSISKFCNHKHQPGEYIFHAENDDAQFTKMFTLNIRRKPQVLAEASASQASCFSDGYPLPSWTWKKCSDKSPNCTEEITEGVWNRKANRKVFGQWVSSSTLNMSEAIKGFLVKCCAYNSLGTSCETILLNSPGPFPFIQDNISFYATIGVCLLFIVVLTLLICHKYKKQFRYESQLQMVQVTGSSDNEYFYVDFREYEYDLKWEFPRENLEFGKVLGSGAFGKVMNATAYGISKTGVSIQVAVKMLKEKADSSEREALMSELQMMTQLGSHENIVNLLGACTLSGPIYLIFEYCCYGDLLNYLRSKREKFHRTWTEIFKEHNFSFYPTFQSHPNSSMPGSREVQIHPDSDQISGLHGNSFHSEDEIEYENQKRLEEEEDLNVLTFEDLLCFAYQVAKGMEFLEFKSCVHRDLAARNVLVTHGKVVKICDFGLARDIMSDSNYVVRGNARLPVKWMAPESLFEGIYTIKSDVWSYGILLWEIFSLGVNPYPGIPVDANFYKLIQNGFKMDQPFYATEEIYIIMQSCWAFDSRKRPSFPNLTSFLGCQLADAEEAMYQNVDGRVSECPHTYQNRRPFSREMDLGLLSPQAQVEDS
Experiment: DiscoverX KINOMEscan competition binding, FLT3 K663Q
Settings: no ATP
test.readout: Kd (nM)

• COc1cc2ncc(-c3nc(N[C@H]4CNCC[C@@H]4F)c(F)cc3F)n2nc1C1CCC1 [Compound 15a] = 0.62

----------
Molecular target: IRAK4 (Homo sapiens, UniProt Q9NWZ3)
Test: RBC HotSpot Kinase Assay, IRAK4
Format: biochemical
Design: purchased RBC (Reaction Biology) HotSpot assay
Settings: HotSpot functional assay, isolated kinase enzyme, 33P-ATP
test.readout: log10 IC50 (log10 of the value in nM)

- COc1cc2ncc(-c3nc(N[C@H]4CNC[C@@H]4F)c(F)cc3F)n2nc1C(C)(O)C(F)(F)F (single isomer, unassigned) [Compound 78a]: 1.96
- COc1cc2ncc(-c3nc(N[C@H]4CNC[C@@H]4F)c(F)cc3F)n2nc1C(C)(O)C(F)(F)F (single isomer, unassigned) [Compound 80a]: 1.38
- Fc1cc(F)c(-c2cnc3cc(OCC(F)F)cnn23)nc1N[C@H]1CNC[C@@H]1F [Compound 82a]: 0.95
- COc1cc2ncc(-c3nc(N[C@H]4CNCC[C@@H]4F)c(F)cc3F)n2nc1C1CCC1 [Compound 15a]: 0.30
- COc1cc2ncc(-c3nc(N[C@H]4CNC[C@@H]4F)c(F)cc3F)n2nc1C12CC(C1)C2 [Compound 66a]: 0.30
- COc1cc2ncc(-c3nc(N[C@H]4CNC[C@@H]4F)c(F)cc3F)n2nc1C1CCCC1 [Compound 16a]: 0.30
- COc1cc2ncc(-c3nc(N[C@H]4CNCC[C@@H]4F)ccc3F)n2nc1C(C)(C)O: 1.43
